subject_of_test: Prothrombin (Homo sapiens)
test_details: Inhibition of thrombin assessed as specific activity at 0.5 mM
Design: scale not given: the % may be the effect or the level left
Peptide text beside a SMILES is read from it.
Below, each of the compounds is paired with its reported Activity value.

Before answering, review these 3 worked examples.
compound: CC(C)[C@H](NC(=O)[C@H](CCC(=O)O)NC(=O)[C@H](Cc1ccc(O)cc1)NC(=O)CNC(=O)[C@H](CO)NC(=O)[C@H](CC(=O)O)NC(=O)[C@H](Cc1cnc[nH]1)NC(=O)[C@H](CCCNC(=N)N)NC(=O)[C@H](Cc1ccccc1)NC(=O)[C@H](CCC(=O)O)NC(=O)[C@H](C)NC(=O)[C@H](CC(=O)O)NC(=O)[C@@H](N)CO)C(=O)Nc1ccc([N+](=O)[O-])cc1
Activity: < 1%
//
compound: N=C(N)NCCC[C@H](NC(=O)c1ccccc1)C(=O)Nc1ccc([N+](=O)[O-])cc1
Activity: 3%
//
compound: CC(C)[C@H](NC(=O)[C@@H]1CCCN1C(=O)[C@@H](NC(=O)[C@H](C)NC(=O)CNC(=O)[C@H](CO)NC(=O)CNC(=O)[C@H](CO)NC(=O)[C@H](CC(N)=O)NC(=O)[C@H](CCCCN)NC(=O)CNC(=O)[C@@H](N)CCCCN)[C@@H](C)O)C(=O)Nc1ccc([N+](=O)[O-])cc1 (HELM PEPTIDE1{K.G.K.N.S.G.S.G.A.T.P.V.[O=[N+]([O-])c1ccc(N[*:1])cc1]}$$$$V2.0)
Activity: < 1%

So what does the record say about Activity for CC(C)C[C@H](NC(=O)CNC(=O)[C@H](C)NC(=O)CNC(=O)[C@@H]1CCCN1C(=O)[C@@H](NC(=O)[C@H](CO)NC(=O)[C@H](C)NC(=O)CNC(=O)[C@@H](N)CCCCN)C(C)C)C(=O)N[C@H](C(=O)Nc1ccc([N+](=O)[O-])cc1)C(C)C (HELM PEPTIDE1{K.G.A.S.V.P.G.A.G.L.V.[O=[N+]([O-])c1ccc(N[*:1])cc1]}$$$$V2.0) ? < 1%

Try the compound CSCC[C@H](NC(=O)[C@@H]1CCCN1C(=O)[C@@H](N)CO)C(=O)N[C@@H](Cc1ccccc1)C(=O)N[C@@H](CCCCN)C(=O)NCC(=O)N[C@H](C(=O)Nc1ccc([N+](=O)[O-])cc1)C(C)C (HELM PEPTIDE1{S.P.M.F.K.G.V.[O=[N+]([O-])c1ccc(N[*:1])cc1]}$$$$V2.0) < 1%

Try the compound CC(C)C[C@H](NC(=O)CN)C(=O)N[C@@H](C)C(=O)N[C@H](C(=O)NCC(=O)N[C@@H](CC(N)=O)C(=O)N[C@H](C(=O)N[C@@H](CO)C(=O)N[C@H](C(=O)N[C@@H](C)C(=O)N[C@@H](CCC(=O)O)C(=O)N[C@@H](CC(C)C)C(=O)N[C@@H](CCC(N)=O)C(=O)N[C@@H](CC(=O)O)C(=O)N[C@@H](C)C(=O)N[C@H](C(=O)N1CCC[C@H]1C(=O)N[C@@H](C)C(=O)Nc1ccc([N+](=O)[O-])cc1)[C@H](C)O)[C@@H](C)O)C(C)C)[C@@H](C)O < 1%
